Assay: qHTS for inhibitors of binding or entry into cells for Marburg Virus
Conditions: Marburg virus pseudotyped entry inhibition, cell reporter; series mostly up to 37.8 µM
Screen size: about 300,000 compounds; about 5,400 (1.8%) were called active. Inconclusive results (about 28%) are left out. The call rests on the fitted dose curve; tested in HEK293 cells. The sample holds actives, similar compounds and a random draw of the others, so the mix is not that of the screen.
Your answer must be one of the following: active, inactive

Some solved entries appear below for comparison.
{"columns": ["molecule", "class"],
 "data": [
  ["Cc1ccc(S(=O)(=O)NCC(=O)Nc2ccc3c(c2)OCCO3)cc1", "inactive"],
  ["Cc1c(CCO)c(=O)n(-c2ccccc2)n1S(=O)(=O)c1ccc(F)cc1", "inactive"],
  ["CCOc1ccc(CCNC(=O)COC(=O)C2CCN(S(=O)(=O)c3ccccc3)CC2)cc1OCC", "inactive"],
  ["CCOc1ccc(S(=O)(=O)Nc2ccc(S(=O)(=O)Nc3cc(OC)ccc3OC)cc2)cc1", "inactive"],
  ["O=C(c1ccc(S(=O)(=O)N2CCCC2)cc1)N1CCN(c2ccccc2F)CC1", "inactive"]
]}

Req: What is the recorded call for this molecule in the test? CCc1ccccc1N(CC(=O)NCC1CCCO1)C(=O)CCC(=O)Nc1nccs1 (stereo not given)
Resp: inactive

Req: Per the records of this test, what outcome belongs to Cn1c(Cl)cnc1[C@H]1CC(=O)c2cc(Cl)ccc2O1 ?
Resp: active

Req: Can you look up the reported call for CCOc1cccc(NC(=O)Cn2nc(-c3ccc4c(c3)OCCO4)ccc2=O)c1 for me?
Resp: inactive

Req: Each molecule tested received a call. Report the one for COc1ccc(-c2csc3ncnc(N4CCN(S(=O)(=O)c5ccccc5C#N)CC4)c23)cc1 .
Resp: inactive

Req: I would be grateful if you could indicate the recorded call for CC(=O)c1cc2c(cc1NC(=O)CN1CCCCCC1)OCO2 .
Resp: inactive

Req: Record request — test call for CCOc1ccc(CCNC(=O)COC(=O)c2c(OC)cccc2OC)cc1OCC
Resp: inactive

Req: Which result was noted for this molecule in the test: CCC(=O)N(Cc1ccccc1)c1ccccn1
Resp: inactive

Req: What was the test verdict on COc1cccc(NC(=O)CN(C)S(=O)(=O)c2ccc(C)cc2)c1 ?
Resp: inactive

Req: # outcome recorded in this test, key = COc1ccc(CCNC(=O)c2ccccc2OCc2ccccc2)cc1
Resp: inactive

Req: What was the test verdict on O=C(COC(=O)c1ccc(Oc2ccccc2)cc1)Nc1nnc(-c2ccccc2)o1 ?
Resp: inactive

Req: What was the test verdict on Cc1c(CCO)c(=O)[nH]n1C(=O)c1c(F)cccc1F ?
Resp: active

Req: Answer briefly: the call reported for CC(C)(C)NC(=O)NC(=O)COC(=O)Cc1ccc(Cl)cc1Cl in this assay.
Resp: inactive

Req: // param item: Cc1c(NC(=O)C(C)OC(=O)c2ccccc2O)c(=O)n(-c2ccccc2)n1C (stereo not given) ; yields the recorded call
Resp: inactive

Req: Dear colleague, could you share the recorded outcome for CCCc1nnc(NC(=O)CCC(=O)N2CCN(S(=O)(=O)c3ccc(OC)cc3)CC2)s1 when you have a moment?
Resp: inactive

Req: Call for entry COc1ccc(C(=O)Nc2ccc(S(=O)(=O)NC(C)C)cc2)cc1 :
Resp: inactive
